meta.source: patent US6727264B1

targetOrTestSystem: rat MCH-1 (Rattus norvegicus, UniProt P97639)
Sequence (P97639 whole entry): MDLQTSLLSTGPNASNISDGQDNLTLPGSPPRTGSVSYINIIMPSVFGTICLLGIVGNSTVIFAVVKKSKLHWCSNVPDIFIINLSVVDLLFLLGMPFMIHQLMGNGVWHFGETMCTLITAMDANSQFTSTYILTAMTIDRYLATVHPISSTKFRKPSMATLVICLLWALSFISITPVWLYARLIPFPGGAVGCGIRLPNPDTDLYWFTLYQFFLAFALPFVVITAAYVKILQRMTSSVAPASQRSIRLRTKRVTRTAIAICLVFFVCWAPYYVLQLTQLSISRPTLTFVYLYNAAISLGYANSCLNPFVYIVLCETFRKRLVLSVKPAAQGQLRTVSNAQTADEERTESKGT
experimentNotes: Radioligand binding assay at cloned rat MCH1 receptor ([3H] Compound A)
Design: host or cells: Peak rapid 293 (Peakr293) cells, transient calcium phosphate transfection, membranes
statedConditions: cloned rat MCH1 receptor, membranes from Peakr293 cells, 0.08 nM [3H] Compound A; read-out: Ki (nM) rMCH1
Just a reminder that ties go to Condition not met: only Ki strictly below 30 nM counts as Condition met.

Look over these answered cases.
Prompt: In plain terms, does `CC(C)C(=O)Nc1cccc(C2CCN(C[C@@H](C)COc3cccc(Br)c3)CC2)c1` come in under 30 nM for Ki?
Response: Condition not met

Prompt: Problem: For the compound CC(C)C(=O)Nc1cccc(C2CCN(CCCC(O)c3ccccc3)CC2)c1 (centres unmarked) , is Ki under 30 nM?
Response: Condition not met

Prompt: Identify whether the compound CC(C)C(=O)Nc1cccc(C2CCN(CCC(O)c3ccc(Cl)cc3)CC2)c1 (centres unmarked) records Ki below 30 nM.
Response: Condition not met

Prompt: Take the compound CC(C)C(=O)Nc1cccc(C2CCN(CCC(Oc3ccc(Br)cc3)c3ccc(F)cc3)CC2)c1 (centres unmarked) and say whether its Ki is less than 30 nM.
Response: Condition met

Prompt: Given `CC(C)C(=O)Nc1cccc(C2CCN(C[C@@H](C)COc3ccc(Cl)cc3)CC2)c1` , is recorded Ki strictly lower than 30 nM?
Response: Condition not met

Next:
Prompt: Ki under 30 nM? Item: `CC(C)C(=O)Nc1cccc(C2CCN(Cc3cccc(Oc4ccc(Cl)cc4)c3)CC2)c1`
Response: Condition met

Prompt: For this compound, is Ki lower than 30 nM? `CC(C)C(=O)Nc1cccc(C2CCN(CCC(=O)c3ccc4c(c3)CCC4)CC2)c1`
Response: Condition not met

Prompt: Identify whether the compound `Cc1onc(-c2ccccc2)c1C(=O)OCCCN1CCC(c2cccc(NC(=O)C(C)C)c2)CC1` records Ki below 30 nM.
Response: Condition not met

====

targetOrTestSystem: rat MCH-1 (Rattus norvegicus)
experimentNotes: Radioligand binding assay at cloned rat MCH1 receptor ([3H] Compound A)
Parameters: host or cells: Peak rapid 293 (Peakr293) cells, transient calcium phosphate transfection, membranes
statedConditions: cloned rat MCH1 receptor; 0.08 nM [3H] Compound A; Peakr293 cell membranes; read-out: Ki (nM) rMCH1
Ki strictly less than 8 nM = rule met. Otherwise rule not met.

// known answers, use as guide
Prompt: # check: Ki < 8 nM for `CC(C)C(=O)Nc1cccc(C2CCN(CCCc3ccccc3)CC2)c1`
Response: rule not met

Prompt: Quick check: does `CC(C)C(=O)Nc1cccc(C2CCN(CCCCC(=O)c3cccc(Br)c3)CC2)c1` have Ki under 8 nM?
Response: rule not met

Others:
Prompt: Bench note: check whether `CC(C)C(=O)Nc1cccc(C2CCN(CC[C@H](NC(=O)c3sccc3Cl)c3ccccc3)CC2)c1` shows Ki below 8 nM
Response: rule met

Prompt: Report whether reported Ki is lower than 8 nM (strictly) for `CC(C)C(=O)Nc1cccc(C2CCN(CC[C@H](NS(=O)(=O)c3ccc(F)c(F)c3)c3ccccc3)CC2)c1`
Response: rule not met

Prompt: A record lists `COc1ccc2[nH]c(-c3cccc(Cl)c3)c(CCCN3CCC(c4cccc(NC(=O)C(C)C)c4)CC3)c2c1` . Is its Ki below 8 nM?
Response: rule met

Prompt: Please let me know if `CC(C)C(=O)Nc1cccc(C2CCN(Cc3cn(-c4ccccc4)c4c(Cl)cccc34)CC2)c1` shows Ki below 8 nM.
Response: rule not met

Prompt: Below 8 nM on Ki? Entry CC(C)C(=O)Nc1cccc(C2CCN(CCCCCC(Oc3ccc(F)cc3)c3ccccc3)CC2)c1 (centres unmarked)
Response: rule not met

====

Documented Ki across a set of compounds
targetOrTestSystem: rat MCH-1 (Rattus norvegicus, UniProt P97639)
experimentNotes: Radioligand binding assay at cloned rat MCH1 receptor ([3H] Compound A)
Set-up: host or cells: Peak rapid 293 (Peakr293) cells, transient calcium phosphate transfection, membranes
statedConditions: cloned rat MCH1 receptor; 0.08 nM [3H] Compound A; Peakr293 cell membranes; read-out: Ki (nM) rMCH1
Number only, in nM; omit the unit.

Prompt: What measured Ki is associated with `COc1ccccc1-n1ccc2cc(CN3CCC(c4cccc(NC(=O)C(C)C)c4)CC3)ccc21` on rat MCH-1 (Rattus norvegicus, UniProt P97639)?
Response: 25

Prompt: What value of Ki on rat MCH-1 (Rattus norvegicus, UniProt P97639) does `CCCc1c(C(=O)NCCCCCCN2CCC(c3cccc(NC(=O)C(C)C)c3)CC2)cnn1-c1ccccc1` have?
Response: 108

Prompt: Lab note: need Ki with rat MCH-1 (Rattus norvegicus, UniProt P97639) for entry `CC(C)C(=O)Nc1cccc(C2CCN(CCCCC(=O)c3cccc(I)c3)CC2)c1` , please look it up.
Response: 19.7

Prompt: Request - read-out Ki | tested on rat MCH-1 (Rattus norvegicus, UniProt P97639) | compound `CCCC(=O)Nc1ccc(C2CCN(CCCCn3ccc4ccccc43)CC2)cc1`
Response: 663

Prompt: Form field: Ki recorded for `CC(C)C(=O)Nc1cccc(C2CCN(CCCc3c(-c4ccc(C(F)(F)F)cc4)[nH]c4ccccc34)CC2)c1` with rat MCH-1 (Rattus norvegicus, UniProt P97639) (enter value)
Response: 5.4

More entries:
Prompt: What measured Ki is associated with `CC(C)C(=O)Nc1cccc(C2CCN(Cc3cccc4c3ccn4-c3ccccn3)CC2)c1` on rat MCH-1 (Rattus norvegicus, UniProt P97639)?
Response: 167

Prompt: Query Ki on rat MCH-1 (Rattus norvegicus, UniProt P97639) for CC(C)C(=O)Nc1cccc(C2CCN(CCCCCC(Oc3ccccc3F)c3ccccc3F)CC2)c1 (stereo not shown)
Response: 8.6

Prompt: Notebook entry, rat MCH-1 (Rattus norvegicus, UniProt P97639) assay: Ki of CC(C)C(=O)Nc1cccc(C2CCN(CCCCCC(Oc3ccc(Cl)cc3)c3ccc(Cl)cc3)CC2)c1 (stereo not shown) = ?
Response: 18

Prompt: Recorded Ki for CC(C)C(=O)Nc1cccc(C2CCN(CCCCCC(O)c3ccc(Cl)cc3)CC2)c1 (stereo not shown) with rat MCH-1 (Rattus norvegicus, UniProt P97639), please?
Response: 38.2

Prompt: Can you look up Ki on rat MCH-1 (Rattus norvegicus, UniProt P97639) for `CC(C)C(=O)Nc1cccc(C2CCN(CCCNC(=O)c3ccc(Oc4cc(Cl)cc(Cl)c4)o3)CC2)c1` ?
Response: 8.3

Prompt: API: value(readout= Ki, system= rat MCH-1 (Rattus norvegicus, UniProt P97639), query= `COC(=O)c1ccccc1-n1ccc2cc(CN3CCC(c4cccc(NC(=O)C(C)C)c4)CC3)ccc21` )
Response: 15.5

Prompt: Kindly state the measured Ki obtained for `O=C(CCCCN1CCC(c2cccc(NC(=O)C3CC3)c2)CC1)c1cccc(Cl)c1` with rat MCH-1 (Rattus norvegicus, UniProt P97639).
Response: 28.9

====

targetOrTestSystem: rat MCH-1 (Rattus norvegicus, UniProt P97639)
experimentNotes: Radioligand binding assay at cloned rat MCH1 receptor ([3H] Compound A)
Set-up: host or cells: Peak rapid 293 (Peakr293) cells, transient calcium phosphate transfection, membranes
statedConditions: cloned rat MCH1 receptor; 0.08 nM [3H] Compound A; Peakr293 cell membranes; read-out: Ki (nM) rMCH1
The following compounds are shown together with reported Ki values.

Prompt: Which measured Ki value corresponds to Cc1cccc2c(CCCN3CCC(c4cccc(NC(=O)C(C)C)c4)CC3)c(-c3ccccc3F)[nH]c12 [Example 710] ?
Response: 6.9 nM

Prompt: Requested read-out: Ki. Entry: Cc1ccc2[nH]c(-c3cccc(Br)c3)c(CCCN3CCC(c4cccc(NC(=O)C(C)C)c4)CC3)c2c1 [Example 763]
Response: 1.9 nM

Prompt: What does the data say about its Ki? Entry: CC(C)C(=O)Nc1cccc(C2CCN(CCCCCC(O)c3cccc(F)c3)CC2)c1 (stereo not shown) [Example 813]
Response: 57.3 nM

Prompt: Form field: reported Ki of CC(C)C(=O)Nc1cccc(C2CCN(Cc3cccc4c3ccn4-c3ccc(Cl)c(Cl)c3)CC2)c1 [Example 864]
Response: 292 nM

Prompt: Using the record for Cc1ccc2[nH]c(-c3ccc(F)cc3)c(CCCN3CCC(c4cccc(NC(=O)C(C)C)c4)CC3)c2c1 [Example 718] , report its Ki.
Response: 3.4 nM

Prompt: Quick one: Ki of CC(C)C(=O)Nc1cccc(C2CCN(CCCC/C(=N\Nc3ccc(OC(F)(F)F)cc3)c3ccc([N+](=O)[O-])cc3)CC2)c1 [Example 780] ?
Response: 64.3 nM

Prompt: Recorded Ki for CCC(=O)Nc1cccc(C2CCN(CCCC(=O)c3ccc(C)cc3)CC2)c1 [Example 542] , please?
Response: 31.3 nM

====

targetOrTestSystem: UniProt:P97639
experimentNotes: Radioligand binding assay at cloned rat MCH1 receptor ([3H] Compound A)
Set-up: host or cells: Peak rapid 293 (Peakr293) cells, transient calcium phosphate transfection, membranes
statedConditions: cloned rat MCH1 receptor; 0.08 nM [3H] Compound A; Peakr293 cell membranes; read-out: Ki (nM) rMCH1
# strict inequality: Ki < 4 nM yields 1 (yes), everything else yields 0 (no)

Use the examples below as a reference point.
Prompt: Hello, is Ki of the following compound strictly smaller than 4 nM? `CC(C)C(=O)Nc1cccc(C2CCN(CCCCC(=O)c3ccccc3F)CC2)c1`
Response: 0 (no)

Prompt: Lab note: Ki threshold 4 nM. Does this compound come in strictly under it? `CC(C)C(=O)Nc1cccc(C2CCN(CCCc3c(-c4ccc(Cl)cc4)[nH]c4ccccc34)CC2)c1`
Response: 1 (yes)

Prompt: Please state whether Ki is below 4 nM for `Cc1cccc(-n2ccc3cc(CN4CCC(c5cccc(NC(=O)C(C)C)c5)CC4)ccc32)c1`
Response: 0 (no)

Prompt: Identify whether the compound `CC(C)C(=O)Nc1cccc(C2CCN(CCCc3c(-c4cccc(F)c4)[nH]c4ccccc34)CC2)c1` records Ki below 4 nM.
Response: 1 (yes)

Prompt: I wonder whether `CC(C)C(=O)Nc1cccc(C2CCN(CCCc3c(-c4ccccc4F)[nH]c4ccccc34)CC2)c1` has Ki below 4 nM. Can you tell?
Response: 1 (yes)

Continuing:
Prompt: Ki under 4 nM? Item: `CC(C)C(=O)Nc1cccc(C2CCN(CC[C@H](NS(=O)(=O)c3cc(Cl)cc(Cl)c3O)c3ccccc3)CC2)c1`
Response: 0 (no)

Prompt: A record lists CC(C)C(=O)Nc1cccc(C2CCN(CCCCCC(Oc3ccc(Br)cc3)c3ccc(F)cc3)CC2)c1 (stereo not shown) . Is its Ki below 4 nM?
Response: 0 (no)
